Reference for the values: the nanobody polyreactivity screen of Harvey et al. (2022)

- Experiment: yeast display, Sf9 membrane polyspecificity reagent, FACS + sequencing; frameworks hold sequencing errors
Endpoint: polyreactivity (PSR sort gate)

Quick check: polyreactivity (PSR sort gate) of QVQLVESGGGVVQAGGSLRLTCAASVSIFASNAMGWYRQAPGKEREFVAAITWRTDRTYYADSVKGRFTISRDNAKNTVYLQMNSLKPEDTAVYYCAADLLPLYDYWGQGTQVTVSS ? high polyreactivity

Quick check: polyreactivity (PSR sort gate) of QVQLVESGGGLVQAGGSLRLSCAASGFTLYGYAMGWYRQAPGKERELVAGIRYSGGRTYYADSVKGRFTISRDNAKNTVYLEMNSLKPEDTAVYYCAAVFKLSSSFYYWGQGTQVTVSS ? high polyreactivity
